Can you tell me Fold change to 1 for the items I'm about to list?
Target: 14-3-3γ (Homo sapiens)
Construct: made in house; host or cells: E. coli NiCo21 (DE3)
Sequence (P61981 1-247): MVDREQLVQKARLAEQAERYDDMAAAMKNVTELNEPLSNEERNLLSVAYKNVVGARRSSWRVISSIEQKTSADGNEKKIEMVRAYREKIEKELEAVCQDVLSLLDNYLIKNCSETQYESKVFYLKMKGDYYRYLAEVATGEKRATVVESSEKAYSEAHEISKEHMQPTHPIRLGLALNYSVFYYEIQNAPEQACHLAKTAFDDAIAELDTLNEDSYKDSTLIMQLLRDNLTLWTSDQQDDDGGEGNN
Assay: Fluorescence anisotropy (FA) binary binding study: 14-3-3 titrated to fluorescein-labelled peptide
Conditions: Table S4; FA Kd / Kd of 1; replicate 2
Where a SMILES comes first, the peptide text is derived from it. [ ]: non-standard residue; d: D form. ξ: configuration not given here. Phe(4-NO2) = N[C@@H](Cc1ccc([N+](=O)[O-])cc1)C(=O)O; ξAla(4-thiazolyl) = NC(Cc1cscn1)C(=O)O; pS = N[C@@H](COP(=O)(O)O)C(=O)O; β3hS = N[C@@H](CO)CC(=O)O; Nva = CCC[C@H](N)C(=O)O; βAla = NCCC(=O)O

compound="CCC[C@H](NC(=O)[C@H](N)CCCCN)C(=O)N[C@@H](Cc1ccc([N+](=O)[O-])cc1)C(=O)NC(Cc1cscn1)C(=O)N[C@@H](COP(=O)(O)O)C(=O)N[C@@H](Cc1ccc([N+](=O)[O-])cc1)C(=O)N[C@@H](CO)CC(=O)NCCC(=O)N[C@@H](Cc1ccccc1)C(=O)N[C@@H](CCCCN)C(N)=O (stereo partly drawn) [5b] (H-[dK][Nva][Phe(4-NO2)][ξAla(4-thiazolyl)][pS][Phe(4-NO2)][β3hS][βAla]FK-NH2; N-terminus and C-terminus assumed)" measured_on="14-3-3γ (Homo sapiens)" endpoint_value=16.9

I'm hoping you can list Fold change to 1 for every compound here, please.
1. CCC[C@H](NC(=O)[C@H](N)CCCCN)C(=O)N[C@@H](Cc1ccc([N+](=O)[O-])cc1)C(=O)NC(Cc1cscn1)C(=O)N[C@@H](COP(=O)(O)O)C(=O)N[C@@H](C)C(=O)N[C@@H](CO)CC(=O)NCCC(=O)N[C@@H](Cc1ccc([N+](=O)[O-])cc1)C(=O)N[C@@H](CCCCN)C(N)=O (stereo partly drawn) [4c] (H-[dK][Nva][Phe(4-NO2)][ξAla(4-thiazolyl)][pS]A[β3hS][βAla][Phe(4-NO2)]K-NH2; N-terminus and C-terminus assumed)
2. CCC[C@H](NC(=O)[C@H](N)CCCCN)C(=O)N[C@@H](Cc1ccc([N+](=O)[O-])cc1)C(=O)NC(Cc1cscn1)C(=O)N[C@@H](COP(=O)(O)O)C(=O)N[C@@H](Cc1ccc([N+](=O)[O-])cc1)C(=O)N[C@@H](CO)CC(=O)NCCC(=O)N[C@@H](C)C(=O)N[C@@H](CCCCN)C(N)=O (stereo partly drawn) [5c] (H-[dK][Nva][Phe(4-NO2)][ξAla(4-thiazolyl)][pS][Phe(4-NO2)][β3hS][βAla]AK-NH2; N-terminus and C-terminus assumed)
3. CCC[C@H](NC(=O)[C@H](N)CCCCN)C(=O)N[C@@H](Cc1ccc([N+](=O)[O-])cc1)C(=O)NC(Cc1cscn1)C(=O)N[C@@H](COP(=O)(O)O)C(=O)N[C@@H](Cc1ccccc1)C(=O)N[C@@H](CO)CC(=O)NCCC(=O)N[C@@H](Cc1ccc([N+](=O)[O-])cc1)C(=O)N[C@@H](CCCCN)C(N)=O (stereo partly drawn) [4b] (H-[dK][Nva][Phe(4-NO2)][ξAla(4-thiazolyl)][pS]F[β3hS][βAla][Phe(4-NO2)]K-NH2; N-terminus and C-terminus assumed)
4. CCC[C@H](NC(=O)[C@H](N)CCCCN)C(=O)N[C@@H](Cc1ccc([N+](=O)[O-])cc1)C(=O)N[C@@H](C)C(=O)N[C@@H](COP(=O)(O)O)C(=O)N[C@@H](Cc1ccc([N+](=O)[O-])cc1)C(=O)N[C@@H](CO)CC(=O)NCCC(=O)N[C@@H](Cc1ccc([N+](=O)[O-])cc1)C(=O)N[C@@H](CCCCN)C(N)=O [3a] (H-[dK][Nva][Phe(4-NO2)]A[pS][Phe(4-NO2)][β3hS][βAla][Phe(4-NO2)]K-NH2; N-terminus and C-terminus assumed)
5. CCC[C@H](NC(=O)[C@H](N)CCCCN)C(=O)N[C@@H](Cc1ccc([N+](=O)[O-])cc1)C(=O)NC(Cc1cscn1)C(=O)N[C@@H](COP(=O)(O)O)C(=O)N[C@@H](Cc1ccc(O)cc1)C(=O)N[C@@H](CO)CC(=O)NCCC(=O)N[C@@H](Cc1ccc([N+](=O)[O-])cc1)C(=O)N[C@@H](CCCCN)C(N)=O (stereo partly drawn) [4a] (H-[dK][Nva][Phe(4-NO2)][ξAla(4-thiazolyl)][pS]Y[β3hS][βAla][Phe(4-NO2)]K-NH2; N-terminus and C-terminus assumed)
6. CCC[C@H](NC(=O)[C@H](N)CCCCN)C(=O)N[C@@H](Cc1ccc([N+](=O)[O-])cc1)C(=O)NC(Cc1cscn1)C(=O)N[C@@H](COP(=O)(O)O)C(=O)N[C@@H](Cc1ccc([N+](=O)[O-])cc1)C(=O)N[C@@H](CO)CC(=O)NCCC(=O)N[C@@H](Cc1ccc(O)cc1)C(=O)N[C@@H](CCCCN)C(N)=O (stereo partly drawn) [5a] (H-[dK][Nva][Phe(4-NO2)][ξAla(4-thiazolyl)][pS][Phe(4-NO2)][β3hS][βAla]YK-NH2; N-terminus and C-terminus assumed)

17.0
31.0
0.5
0.6
0.6
17.1

Data provenance: paper PMC9667936
